experiment-summary: clinical
experimental-parameters: human, in vivo, iv
Would you kindly list MRT for each of these compounds?
The response must be a number in h with no trailing unit.

Quick one: MRT of CNC(=O)c1c(I)c(NC(C)=O)c(I)c(C(=O)O)c1I [IOTHALAMIC ACID] ? 1.2

Quick one: MRT of CC[C@H]1OC(=O)[C@H](C)[C@@H](O[C@H]2C[C@@](C)(OC)[C@@H](O)[C@H](C)O2)[C@H](C)[C@@H](O[C@@H]2O[C@H](C)C[C@H](N(C)C)[C@H]2O)[C@](C)(OC)C[C@@H](C)C(=O)[C@H](C)[C@@H](O)[C@]1(C)O [CLARITHROMYCIN] ? 3.4

Quick one: MRT of NCCC(O)(P(=O)(O)O)P(=O)(O)O [PAMIDRONIC ACID] ? 12

Quick one: MRT of CN(C)c1cc(NC(=O)CNC(C)(C)C)c(O)c2c1C[C@H]1C[C@H]3[C@H](N(C)C)C(O)=C(C(N)=O)C(=O)[C@@]3(O)C(O)=C1C2=O [TIGECYCLINE] ? 53

Quick one: MRT of CCCCCN(CCCOC)C(=O)[C@@H](CCC(=O)O)NC(=O)c1ccc(Cl)c(Cl)c1 [DEXLOXIGLUMIDE] ? 0.79

Quick one: MRT of CCCCC(=O)N(Cc1ccc(-c2ccccc2-c2nnn[nH]2)cc1)[C@H](C(=O)O)C(C)C ? 7.5

Quick one: MRT of CCOC(=O)C1(c2ccccc2)CCN(C)CC1 [MEPERIDINE] ? 6.4

Quick one: MRT of CCOC(=O)[C@@H]1C2CCC(C[C@@H]1OC(=O)c1ccccc1)N2C (stereo partly specified) [COCAETHYLENE] ? 2

Quick one: MRT of NC(=O)c1csc([C@@H]2O[C@H](CO)[C@@H](O)[C@H]2O)n1 [TIAZOFURIN] ? 7.6

Quick one: MRT of N[C@@H]1CN(c2c(F)cc3c(=O)c(C(=O)O)cn([C@@H]4C[C@@H]4F)c3c2Cl)CC12CC2 [SITAFLOXACIN ANHYDROUS] ? 6.7

Quick one: MRT of CC(CCc1ccc2c(c1)OCO2)NCC(O)c1ccc(O)c(C(N)=O)c1 (stereo unspecified) [MEDROXALOL] ? 8.2
